Origin of the recorded values: PubChem BioAssay (NCI)

Item-by-item account of growth inhibition
# assay explanation: NCI Yeast Anticancer Drug Screen. Data for the rad50 strain (AID 155);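 also: 0% = growth of vehicle-only cultures of the same strain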
# particulars: S. cerevisiae rad50 strain growth inhibition; at 1.2 µM; stronger effect = higher value
About 79,000 compounds went through this panel and 15% of them were active in at least one assay; those are over-represented in the sample as a whole.
Reply with just the number (in %).

A selection of reference data follows.
                                   molecule  observed_result
0  O=[N+]([O-])c1cccc2nc3ccccc3c(NCCC[N+]3([O-])CCCCC3)c12                4
1       Nc1n[n+]([O-])c2ccc(Cl)cc2[n+]1[O-]               60
2  CC(NCCN(C)C)C1CCC2C3CCc4cc(O)ccc4C3CCC12C (stereo unspecified)               14
3  O=C(CC(C(=O)O)N1CCOCC1)c1ccccc1 (stereo unspecified)               -3
4  CCOC(=O)c1[nH]n(-c2ccccc2)c(=O)c1C=NC(=S)C(N)=S                8

Recorded growth inhibition for `COc1c(O)c(C=O)c(Br)c(C=O)c1O` , please?
4

----------
# assay explanation: NCI Yeast Anticancer Drug Screen. Data for the sgs1 mgt1 strain (AID 161);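 also: 0% = growth of cultures given vehicle only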
# particulars: S. cerevisiae sgs1 mgt1 strain, at 5.0 µM (retest, dose inferred, filed as 0.5), stronger effect = higher value
# Procedure: Growth inhibition of yeast strains with defined genetic alterations is measured as a screen for potential anti-cancer activity. Selected strains with alterations in DNA damage repair or cell cycle control were exposed to compounds and growth inhibition was measured relative to vehicle treated controls. The strain used in this assay is sgs1 mgt1
About 79,000 compounds went through this panel and 15% of them were active in at least one assay; those are over-represented in the sample as a whole.
Answer Not fulfilled if growth inhibition is under 10%, and Fulfilled if it is 10% or more.

>>> df
                                   compound          group
0              O=c1c2ccccc2nc(-c2ccccc2)n1O      Fulfilled
1                   CCOC(=N)c1ccc(O)c(OC)c1  Not fulfilled
2  CCOC(=O)C(Br)C(Br)c1ccccc1Cl (stereo unspecified)      Fulfilled

growth inhibition >= 10% for `CCc1c(Cl)c(C)cc(O)c1Cl` ?
Not fulfilled

growth inhibition >= 10% for `c1ccc(CCN2CCc3ccccc3C2)cc1` ?
Not fulfilled

growth inhibition >= 10% for COc1ccc(NC(=O)CC2SC(=Nc3ccccc3C)NC2=O)c([N+](=O)[O-])c1 (stereo unspecified) ?
Not fulfilled

growth inhibition >= 10% for `CN(C)[C@@H]1C(=O)C(C(N)=O)=C(O)[C@@]2(O)C(=O)C3=C(O)c4c(O)cccc4C[C@H]3C[C@@H]12` ?
Fulfilled

growth inhibition >= 10% for COc1nc2c(c(=O)n1C)N=C(c1ccccc1)[C@H](C(CC(=O)c1ccccc1)c1ccccc1)C(c1ccccc1)N2 (stereo partly specified) ?
Not fulfilled

growth inhibition >= 10% for `Cc1nc2ccccc2nc1NNc1ccccc1` ?
Fulfilled

growth inhibition >= 10% for O=C(CC(C(=O)O)N1CCOCC1)c1ccccc1 (stereo unspecified) ?
Not fulfilled

growth inhibition >= 10% for CC1CC[C@]2(C(=O)O)CCC3(C)C(=CC(=O)C4[C@@]5(C)CCC(=O)C(C)(C)C5CC[C@]43C)[C@@H]2[C@H]1C (stereo partly specified) ?
Not fulfilled

----------
# assay explanation: NCI Yeast Anticancer Drug Screen. Data for the bub3 strain (AID 167)
# particulars: S. cerevisiae bub3 mutant strain, at 100.0 µM
This is part of a sample that, as a whole, favours compounds with a hit. Of some 79,000 tested, about 15% had one in any assay. Calls of active or inactive are those of the source. No stated cut-off is given here; in the data, active means growth inhibition above about 70%; inactive means the rest.
Outcomes you can answer with include only these: active, inactive

Illustrative cases are given below, each with its answer.
>>> df
                                   compound     group
0      O=P(NC1CCCCC1)(OCc1ccccc1)OCc1ccccc1  inactive
1      O=C1Nc2ccc(Br)cc2C1=Nc1ccc2c(c1)OCO2    active
2  O=[N+]([O-])c1cc(F)c(F)cc1Sc1cc(F)c(F)cc1[N+](=O)[O-]    active
3  COc1cc2ccnc(-c3c4ccccc4c(N)c4c(OC)c(OC)ccc34)c2cc1OC  inactive
4               c1ccc2c(c1)sc1c3cnccc3ccc21  inactive
5     CCCCOP(=O)(CCCP(=O)(OCCCC)OCCCC)OCCCC    active
6                   CCOC(=N)c1ccc(O)c(OC)c1    active
7                CN1C(=O)c2ccc3ccccc3c2C1=O  inactive
8  COC(=O)CC1CCc2c(ccc3ccccc23)C1(C)C(=O)OC (centres undefined)    active
9  CCN(CC)CCNc1ccc2ncn3c4cc(OC)c(OC)c(=O)c4c(O)c1c23  inactive

Now turn to the next compound.
In this assay, the call recorded for CCOC(=O)C1=C(C)NC(C)=C(C(=O)OCCNC(=O)c2ccc(N=[N+]=[N-])cc2)C1c1ccccc1C(F)(F)F (centres undefined) was what?
inactive

----------
# assay explanation: NCI Yeast Anticancer Drug Screen. Data for the wt2 strain (AID 169);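 also: 0% = growth of vehicle-treated yeast cultures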
# particulars: S. cerevisiae wt2 strain growth inhibition; at 33.0 µM
# Method: Growth inhibition of yeast strains with defined genetic alterations is measured as a screen for potential anti-cancer activity. Selected strains with alterations in DNA damage repair or cell cycle control were exposed to compounds and growth inhibition was measured relative to vehicle treated controls. The strain used in this assay is wt2
Compounds without any hit were thinned out: in the full panel of roughly 79,000, 15% have a hit. Calls of active or inactive are those of the source. Cut-off read from the data, not from the text of the source: active = growth inhibition above about 70%; inactive = the rest.
Outcomes you can answer with include only these: active, inactive

>>> print(df.to_string())
                                   compound     group
0                c1ccc(CCN2CCc3ccccc3C2)cc1  inactive
1           CC(=O)Nc1ccc2c(c1)-c1ccccc1C2=O  inactive
2  O=C1OC(OC/C(Br)=C(\Br)COC2OC(=O)C(Cl)=C2Cl)C(Cl)=C1Cl (stereo not given)  inactive
3       CC(C)c1ccc(NC(=S)NC(=O)c2ccccc2)cc1  inactive
4  CC(=O)ON=C1C=CC(=C(C#N)c2ccc(Cl)cc2)C=C1  inactive
5  COC1CCC(O)C(/C=C/[N+](=O)[O-])C1 (stereo not given)    active

In this assay, the call recorded for `COc1cc2cc3c4cc(OC)c(OC)cc4cc[n+]3c(C)c2cc1OC` was what?
inactive

In this assay, the call recorded for C[C@]12CC[C@H](O)CC1=CC[C@@H]1C2CC[C@]2(C)C(=O)NC(=O)CC12 (stereo not given in full) was what?
active

In this assay, the call recorded for `O=C1NC(=O)c2ccc([N+](=O)[O-])c3cccc1c23` was what?
inactive

----------
# assay explanation: NCI Yeast Anticancer Drug Screen. Data for the CLN2oe strain (AID 163);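 also: 0% = growth of vehicle-only control cultures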
# particulars: S. cerevisiae CLN2oe strain, at 3.7 µM, stronger effect = higher value
About 79,000 compounds went through this panel and 15% of them were active in at least one assay; those are over-represented in the sample as a whole.
measure name: growth inhibition (%)
Reply with just the number (in %).

A selection of reference data follows.
>>> print(df.to_string())
                                   compound  unit_info  observed_result
0      O=C(/C=C\c1cccc(C(F)(F)F)c1)c1ccccc1          %              -11
1      O=C(O)c1cc2ccccc2c2c1C(=O)c1ccccc1-2          %               28
2    OCC(CO)C(c1cccc2ccccc12)c1cccc2ccccc12          %               28
3                       O=C1CC(=O)c2ccccc21          %               -1
4  O=C(Nc1ccc(Cl)cc1)Nc1nnc2nc(C(C(=O)c3cccc([N+](=O)[O-])c3Cl)c3nc4nnc(NC(=O)Nc5ccc(Cl)cc5)n4[nH]c3=O)c(=O)[nH]n12          %               -8
5   CCOC(=O)c1ccc(NC(=O)O/N=C(/Cl)C(C)C)cc1          %                2

Recorded growth inhibition for `Cc1nc(Nc2ccccc2[N+](=O)[O-])sc1C(=O)CC(=O)C(=O)Nc1c(C(C)C)cccc1C(C)C` , please?
1

----------
# assay explanation: NCI Yeast Anticancer Drug Screen. Data for the rad52 strain (AID 147);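 also: 0% = growth of vehicle-treated control cultures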
# particulars: S. cerevisiae rad52 mutant growth inhibition; at 100.0 µM; stronger effect = higher value
This is part of a sample that, as a whole, favours compounds with a hit. Of some 79,000 tested, about 15% had one in any assay.
Answer Criterion not met if growth inhibition is under 90%, and Criterion met if it is 90% or more.

compound	group
COc1cc(/C=C2\NC(=O)N(/C=C3\C(=O)Oc4ccccc4C3=O)C2=O)ccc1O	Criterion met

growth inhibition >= 90% for O=C1c2cccnc2C(=O)C2C3C=CC(C3)C12 (stereo not given) ?
Criterion met

growth inhibition >= 90% for `N#CC(C#N)=NNc1ccc(S(=O)(=O)O)cc1` ?
Criterion not met
